biological target: pPDGFRβ in normal human dermal fibroblasts (NHDF) (Homo sapiens (Human)); experiment: Cellular pPDGFRβ inhibition assay; settings: NHDF stimulated with 50 ng/ml PDGF-BB, 1 h
Sequence (P09619 33-1106): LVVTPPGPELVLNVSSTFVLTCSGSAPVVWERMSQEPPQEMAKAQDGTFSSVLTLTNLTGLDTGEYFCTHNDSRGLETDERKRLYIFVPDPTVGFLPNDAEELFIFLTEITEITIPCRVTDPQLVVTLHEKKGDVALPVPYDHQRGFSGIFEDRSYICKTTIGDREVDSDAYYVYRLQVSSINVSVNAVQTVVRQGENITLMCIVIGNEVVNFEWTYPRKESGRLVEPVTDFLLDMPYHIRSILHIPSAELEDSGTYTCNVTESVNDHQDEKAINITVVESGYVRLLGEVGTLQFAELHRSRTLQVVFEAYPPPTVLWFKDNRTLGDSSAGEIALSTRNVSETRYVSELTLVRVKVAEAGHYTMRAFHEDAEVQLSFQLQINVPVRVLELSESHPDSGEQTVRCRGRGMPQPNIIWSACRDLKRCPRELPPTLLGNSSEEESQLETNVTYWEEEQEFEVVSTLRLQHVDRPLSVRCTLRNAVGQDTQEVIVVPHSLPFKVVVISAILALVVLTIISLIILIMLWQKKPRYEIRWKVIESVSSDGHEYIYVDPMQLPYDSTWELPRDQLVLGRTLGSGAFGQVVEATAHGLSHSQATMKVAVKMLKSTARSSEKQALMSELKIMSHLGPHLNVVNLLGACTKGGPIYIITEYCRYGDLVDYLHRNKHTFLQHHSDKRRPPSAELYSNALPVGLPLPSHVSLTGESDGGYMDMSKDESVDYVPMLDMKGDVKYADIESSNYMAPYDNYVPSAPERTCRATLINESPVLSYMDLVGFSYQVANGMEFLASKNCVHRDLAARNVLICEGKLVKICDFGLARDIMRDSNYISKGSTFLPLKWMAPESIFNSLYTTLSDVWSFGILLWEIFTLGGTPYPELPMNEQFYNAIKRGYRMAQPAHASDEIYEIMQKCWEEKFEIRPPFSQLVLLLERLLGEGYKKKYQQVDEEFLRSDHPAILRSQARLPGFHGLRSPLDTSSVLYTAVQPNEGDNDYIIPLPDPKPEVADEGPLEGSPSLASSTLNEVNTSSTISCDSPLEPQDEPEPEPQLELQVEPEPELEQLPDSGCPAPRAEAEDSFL
Kindly state pIC50 for each of the entries shown.
// pIC50 is dimensionless: -log10 of concentration (M)

query: Lab note: need pIC50 with pPDGFRβ in normal human dermal fibroblasts (NHDF) (Homo sapiens (Human)) for entry CCOCCN(CC)Cc1ccc2c(c1)NC(=O)c1c(Nc3cc(O)c(C)cc3F)ccnc1N2 , please look it up.
result: 7.01

query: Similarly, Cc1cc(F)c(Nc2ccnc3c2C(=O)Nc2cc(CN4CCN(CC(F)F)CC4)ccc2N3)cc1O ?
result: 6.26

query: Proceed to CCN(CCO)C(=O)c1ccc2c(c1)NC(=O)c1c(Nc3cc(O)c(C)cc3F)ccnc1N2
result: 6.05

query: What do we get for Cc1cc(F)c(Nc2ccnc3c2C(=O)Nc2cc(CNC(CO)CO)ccc2N3)cc1O ?
result: 7.49

query: Cc1cc(F)c(Nc2ccnc3c2C(=O)Nc2cc(CN4CCCC4)ccc2N3)cc1O ?
result: 7.64

query: What do you have for Cc1cc(F)c(Nc2ccnc3c2C(=O)Nc2cc(CNC4CC(O)C4)ccc2N3)cc1O (stereo not drawn) ?
result: 7.38

query: Next: Cc1cc(F)c(Nc2ccnc3c2C(=O)Nc2cc(CNC4CC4)ccc2N3)cc1O
result: 6.95

query: And then CCN(CC)Cc1ccc2c(c1)NC(=O)c1c(Nc3cc(O)c(C)cc3F)ccnc1N2 , what is it?
result: 7.67

query: Queued: Cc1ccc(O)cc1Nc1ccnc2c1C(=O)Nc1cc(CN3CCC(O)CC3)ccc1N2
result: 6.85

query: Another: Cc1cc(F)c(Nc2ccnc3c2C(=O)Nc2cc(CN(C)CCO)ccc2N3)cc1O
result: 7.30

query: Try Cc1cc(F)c(Nc2ccnc3c2C(=O)Nc2cc(CN[C@H]4CC[C@H](O)CC4)ccc2N3)cc1O next.
result: 7.95

query: Could you do the same for CCN(C)Cc1ccc2c(c1)NC(=O)c1c(Nc3cc(O)c(C)cc3F)ccnc1N2 , please?
result: 7.39

query: Same question for CCN(Cc1ccc2c(c1)NC(=O)c1c(Nc3cc(O)c(C)cc3F)ccnc1N2)C(C)C please.
result: 7.66

query: Continue with Cc1cc(F)c(Nc2ccnc3c2C(=O)Nc2cc(CNC(CO)C(C)C)ccc2N3)cc1O (racemic)
result: 7.36

query: Another compound: Cc1cc(F)c(Nc2ccnc3c2C(=O)Nc2cc(CN4CCOCC4)ccc2N3)cc1O
result: 7.45

query: Ok, now Cc1cc(F)c(Nc2ccnc3c2C(=O)Nc2cc(CN4C[C@H](O)C[C@H]4CO)ccc2N3)cc1O
result: 7.84

query: What about this compound? CCNCc1ccc2c(c1)NC(=O)c1c(Nc3cc(O)c(C)cc3F)ccnc1N2
result: 7.48

query: And the next one, Cc1cc(F)c(Nc2ccnc3c2C(=O)Nc2cc(CN(C)C[C@H](C)O)ccc2N3)cc1O ?
result: 7.41

* * *

molecular target: human PDGFRβ (Homo sapiens (Human), UniProt P09619); assay: PDGFRβ kinase assay (PDGFRβ-HTRF); assay type: biochemical
Sequence (P09619 561-1106): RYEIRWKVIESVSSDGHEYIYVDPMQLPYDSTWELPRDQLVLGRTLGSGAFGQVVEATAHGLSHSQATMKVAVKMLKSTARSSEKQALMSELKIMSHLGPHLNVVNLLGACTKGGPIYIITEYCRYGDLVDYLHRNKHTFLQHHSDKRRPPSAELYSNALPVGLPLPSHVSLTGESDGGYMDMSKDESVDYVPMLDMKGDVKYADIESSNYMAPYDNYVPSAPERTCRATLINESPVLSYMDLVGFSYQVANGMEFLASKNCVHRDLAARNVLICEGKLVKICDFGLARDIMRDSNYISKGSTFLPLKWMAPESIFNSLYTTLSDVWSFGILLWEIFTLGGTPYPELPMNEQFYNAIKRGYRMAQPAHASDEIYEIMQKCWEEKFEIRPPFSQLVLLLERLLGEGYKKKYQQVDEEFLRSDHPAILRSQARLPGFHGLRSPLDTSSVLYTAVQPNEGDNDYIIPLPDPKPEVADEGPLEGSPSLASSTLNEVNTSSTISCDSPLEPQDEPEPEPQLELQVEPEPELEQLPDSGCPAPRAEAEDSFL
Where a name gives a salt, the structure may show the parent alone.
assay_readout: pIC50
pIC50 here: minus log base 10 of the concentration, concentration in moles per litre.

query: Find the measured pIC50: item Cc1ccc(O)cc1Nc1ccnc2c1C(=O)Nc1cc(CN3CCOCC3)ccc1N2 [Example 41, formic acid salt] , target or system human PDGFRβ (Homo sapiens (Human), UniProt P09619).
result: 8.43
